All figures here come from patent US12152038B2.

target: MDR1 (P-glycoprotein) (Homo sapiens); construct: host or cells: MDCK (MDR1-MDCK; wild-type MDCK as comparator); experiment: MDR1-MDCK permeability and efflux assay (Papp, efflux ratio, effective efflux ratio); type: in vitro ADME; settings: dog, MDCK-MDR1, pH 7.4, Papp B>A/Papp A>B, MDR1-MDCK cells; read-out: ER MDR1 (Efflux Ratio)
Sequence (P08183 whole entry): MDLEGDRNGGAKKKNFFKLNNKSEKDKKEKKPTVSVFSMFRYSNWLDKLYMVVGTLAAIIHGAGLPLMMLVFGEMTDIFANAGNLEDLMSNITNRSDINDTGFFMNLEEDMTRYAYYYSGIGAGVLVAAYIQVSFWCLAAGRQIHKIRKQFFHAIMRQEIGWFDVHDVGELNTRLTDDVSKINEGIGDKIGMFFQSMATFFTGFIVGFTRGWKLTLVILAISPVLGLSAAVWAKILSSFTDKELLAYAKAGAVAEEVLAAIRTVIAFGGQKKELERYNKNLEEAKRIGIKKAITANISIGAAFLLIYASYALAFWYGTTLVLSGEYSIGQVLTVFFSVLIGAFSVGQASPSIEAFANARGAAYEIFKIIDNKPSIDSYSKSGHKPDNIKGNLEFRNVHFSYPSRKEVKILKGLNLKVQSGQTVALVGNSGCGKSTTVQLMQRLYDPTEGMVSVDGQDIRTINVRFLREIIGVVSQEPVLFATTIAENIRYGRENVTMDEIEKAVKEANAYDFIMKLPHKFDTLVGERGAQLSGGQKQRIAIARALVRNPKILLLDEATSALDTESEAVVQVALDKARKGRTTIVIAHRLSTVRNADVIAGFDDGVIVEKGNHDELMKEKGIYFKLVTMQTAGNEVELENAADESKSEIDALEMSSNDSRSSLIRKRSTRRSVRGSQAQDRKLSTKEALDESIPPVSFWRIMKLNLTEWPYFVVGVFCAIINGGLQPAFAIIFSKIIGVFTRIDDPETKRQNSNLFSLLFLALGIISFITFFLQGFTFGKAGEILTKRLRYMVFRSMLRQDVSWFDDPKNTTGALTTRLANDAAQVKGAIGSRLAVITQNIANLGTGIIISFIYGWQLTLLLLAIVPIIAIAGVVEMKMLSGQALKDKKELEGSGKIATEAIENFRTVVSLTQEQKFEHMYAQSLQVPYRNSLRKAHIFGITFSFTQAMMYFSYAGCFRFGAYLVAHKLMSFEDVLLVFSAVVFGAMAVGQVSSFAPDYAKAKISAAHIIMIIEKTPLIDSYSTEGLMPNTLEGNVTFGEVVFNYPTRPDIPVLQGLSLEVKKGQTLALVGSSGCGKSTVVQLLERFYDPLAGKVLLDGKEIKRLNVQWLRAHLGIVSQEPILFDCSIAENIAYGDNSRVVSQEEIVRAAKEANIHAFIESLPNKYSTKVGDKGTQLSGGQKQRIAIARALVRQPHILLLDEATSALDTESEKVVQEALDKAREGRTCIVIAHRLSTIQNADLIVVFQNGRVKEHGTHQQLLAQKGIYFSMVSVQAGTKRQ
recorded-metric: efflux ratio at 1 h, 10 μM

Example compounds with recorded efflux ratio at 1 h, 10 μM:
compound: CC1COc2cc(Cl)ccc2N1C(=O)N1CC2(C1)CN(c1cnccn1)C2 (single isomer, unassigned)
recorded-metric: efflux ratio at 1 h, 10 μM
measured-value: 1 to 2

compound: Cc1nc(N2CC3(CN(C(=O)N4c5ccc(Cl)cc5OCC4C)C3)C2)ncc1F (single isomer, unassigned)
recorded-metric: efflux ratio at 1 h, 10 μM
measured-value: < 1

For CC1COc2cc(Cl)c(F)cc2N1C(=O)N1CC2(C1)CN(c1cccnn1)C2 (stereo not drawn) [19-4] , what is its reported efflux ratio at 1 h, 10 μM?
< 1

For CC1COc2cc(Cl)ccc2N1C(=O)N1CC2(C1)CN(c1ncccc1C#N)C2 (stereo not drawn) , what is its reported efflux ratio at 1 h, 10 μM?
1 to 2

For `O=C(N1CC2(C1)CN(c1ccccn1)C2)N1CCOc2cc(Cl)ccc21` , what is its reported efflux ratio at 1 h, 10 μM?
< 1

* * *

test: Wild-type MDCK permeability and efflux assay (Papp, efflux ratio); format: in vitro ADME; conditions: dog, pH 7.4; Papp B>A/Papp A>B, wild-type MDCK cells; read-out: ER WT (Efflux Ratio)
recorded-metric: efflux ratio at 1 h, 10 μM

Example molecules with recorded efflux ratio at 1 h, 10 μM:
molecule: Cc1cncc(N2CC3(CN(C(=O)N4c5ccc(F)cc5OCC4C)C3)C2)n1 (centres unmarked) [20-2]
efflux ratio at 1 h, 10 μM: 1 to 2
--
molecule: CC1COc2cc(F)ccc2N1C(=O)N1CC2(C1)CN(c1cc(C#N)ccn1)C2 (single isomer, unassigned) [20-3-B]
efflux ratio at 1 h, 10 μM: < 1
--
molecule: CC1COc2cc(Cl)ccc2N1C(=O)N1CC2(C1)CN(c1cc(C#N)ccn1)C2 (single isomer, unassigned) [20-6-A]
efflux ratio at 1 h, 10 μM: < 1
--
molecule: O=C(N1CC2(C1)CN(c1ccc(F)cn1)C2)N1CCc2cc(Cl)ccc21 [8-11]
efflux ratio at 1 h, 10 μM: < 1
--
molecule: CC1COc2cc(Cl)ccc2N1C(=O)N1CC2(C1)CN(c1noc3ccccc13)C2 (centres unmarked) [21-1]
efflux ratio at 1 h, 10 μM: < 1

For O=C(N1CC2(C1)CN(c1ccc(F)cn1)C2)N1CCOCc2cc(Cl)ccc21 [8-4] , what is its reported efflux ratio at 1 h, 10 μM?
1 to 2

For Cc1cncc(N2CC3(CN(C(=O)N4c5ccc(Cl)cc5OCC4C)C3)C2)n1 (centres unmarked) [21-3] , what is its reported efflux ratio at 1 h, 10 μM?
< 1

For CC1COc2cc(F)ccc2N1C(=O)N1CC2(C1)CN(c1cc(C#N)ccn1)C2 (centres unmarked) [20-3] , what is its reported efflux ratio at 1 h, 10 μM?
1 to 2

* * *

Biological target: human Oxytocin Receptor (hOTR) (Homo sapiens, UniProt P30559)
Sequence (P30559 1-389): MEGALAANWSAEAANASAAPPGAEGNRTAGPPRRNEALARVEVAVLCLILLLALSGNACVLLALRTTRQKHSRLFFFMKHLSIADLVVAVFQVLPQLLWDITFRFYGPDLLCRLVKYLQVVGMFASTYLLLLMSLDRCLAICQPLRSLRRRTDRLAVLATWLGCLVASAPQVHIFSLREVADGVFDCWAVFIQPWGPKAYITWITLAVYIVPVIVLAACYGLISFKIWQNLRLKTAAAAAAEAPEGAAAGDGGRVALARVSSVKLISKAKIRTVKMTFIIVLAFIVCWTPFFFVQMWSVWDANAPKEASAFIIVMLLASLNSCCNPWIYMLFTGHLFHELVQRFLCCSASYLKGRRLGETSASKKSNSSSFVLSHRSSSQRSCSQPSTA
Experiment: Oxytocin receptor (OTR) antagonist assay (FLIPR calcium, CHEM-1-hOTR cells)
recorded-metric: IC50

Example molecules with recorded IC50:
molecule: CC1COc2cc(Cl)ccc2N1C(=O)N1CC2(C1)CN(c1nccc(C(F)(F)F)n1)C2 (stereo not shown) [21-10]
IC50: 500 to 1000 nM
//
molecule: CC1COc2cc(Cl)ccc2N1C(=O)N1CC2(C1)CN(c1ccc(F)cn1)C2 (single isomer, unassigned) [1-73-B]
IC50: < 100 nM

For Cc1cncc(N2CC3(CN(C(=O)N4CCOc5cc(Cl)ccc54)C3)C2)n1 [1-22] , what is its reported IC50?
≥ 1000 nM

For CC1COc2cc(Cl)ccc2N1C(=O)N1CC2(C1)CN(c1ncccc1C#N)C2 (stereo not shown) [21-2] , what is its reported IC50?
100 to 500 nM
